Hey, just so you know, these numbers are from ChEMBL document CHEMBL1126391.

- TEST_TARGET: UniProt Q72547
- ASSAY_INFO: Ability to inhibit HIV-1 IIIB reverse transcriptase catalyzed incorporation of tritiated thymidine triphosphate onto a biotinylated rA.dT template primer
pIC50: −log10 of the molar value.
QUANTITY_KIND: pIC50

(A) CCN1c2ncccc2-c2nccn2-c2cccnc21
(B) Cc1ccnc2c1-n1ccnc1-c1cccnc1N2C1CC1
For the pair A and B , which member has the lower pIC50 number? Please reply using the label of the selected record.
A
(A: 4.95, B: 5.69)

(1) CCN1c2ncccc2-c2ncc(C)n2-c2ccc(O)nc21
(2) CCN1c2ncccc2-c2nnc(C)n2-c2cccnc21
(3) CCN1c2ncccc2-c2nncn2-c2cccnc21
Order the records so the highest pIC50 appears first and the lowest last. Dear reader, please state the labels in the requested order.
1, 2, 3
(1: 4.91, 2: 4.41, 3: 4.14)

(P) CCN1c2ncccc2-c2nc(C)cn2-c2cccnc21
(Q) CCN1c2ncccc2-c2ncc(C)n2-c2cccnc21
(R) CCc1nnc2n1-c1cccnc1N(CC)c1ncccc1-2
(S) CCN1c2ncccc2-c2nccn2-c2ccc(OC)nc21
(T) CCN1c2ncccc2-c2nccn2-c2ccc(N(C)C)nc21
Rank ascending by pIC50. Quick reminder: the answer is the labels in the order asked.
R, P, T, Q, S
(R: 4.25, P: 4.95, T: 5.41, Q: 5.91, S: 6.22)

###

- ASSAY_INFO: Concentration determined to be cytotoxic (reduced cell number as compared with controls), was recorded after 7 days incubation in the […] assay system
- Type: cell-based
- SETTINGS: human, H9 cells (H9/HIV-IIIB assay system); read-out: Cell toxicity
QUANTITY_KIND: MCC at 168 h

# lookup: MCC at 168 h of CCN1c2ncccc2-c2nccn2-c2c(C)ccnc21
> 100 µM

---
Given the compound CCN1c2ncccc2-c2ncc(C)n2-c2ccc(OC)nc21 , what is its reported MCC at 168 h?
> 10 µM

# lookup: MCC at 168 h of CCN1c2ncccc2-c2nccn2-c2ccc(N(C)C)nc21
10 µM

Which MCC at 168 h is reported for this compound? Cc1ccnc2c1NC(=O)c1cccnc1N2C1CC1 [NEVIRAPINE]
> 10 µM

# MCC at 168 h lookup, item CCN1c2ncccc2-c2nccn2-c2cccnc21
50 µM

For the compound CCN1c2ncccc2-c2ncc(C)n2-c2ccc(N(C)C)nc21 , what MCC at 168 h is on record?
> 100 µM

What does the record list as MCC at 168 h for CCN1c2ncccc2-c2nccn2-c2ccc(N3CCCC3)nc21 ?
100 µM

###

- TEST_TARGET: Human immunodeficiency virus type 1 reverse transcriptase (Human immunodeficiency virus 1, UniProt Q72547)
- ASSAY_INFO: Ability to inhibit HIV-1 IIIB reverse transcriptase catalyzed incorporation of tritiated thymidine triphosphate onto a biotinylated rN.dN template primer
pIC50: −log10 of the molar value.
QUANTITY_KIND: pIC50

Example compounds with recorded pIC50:
For the compound CCN1c2ncccc2-c2ncc(C)n2-c2ccc(O)nc21 , what pIC50 is on record?
5.49

Sample CCN1c2ncccc2-c2nnc(C(C)C)n2-c2cccnc21 — what was its pIC50?
4.20

What value of pIC50 has been reported for the following compound? CCN1c2ncccc2-c2ncc(C)n2-c2ccc(N(C)C)nc21
5.96

Can you share its pIC50? I mean this compound: CCN1c2ncccc2-c2nccn2-c2ccc(O)nc21
5.16

What pIC50 value was documented for this compound, CCc1nnc2n1-c1cccnc1N(CC)c1ncccc1-2 ?
4.69

I'd like to know its pIC50. The compound in question is CCN1c2ncccc2-c2ncc(C)n2-c2ccc(OC)nc21
6.81

May I ask what pIC50 has been recorded for CCN1c2ncccc2-c2nccn2-c2ccc(N(C)C)nc21 ?
5.66

Fill in: pIC50 of CCc1cnc2n1-c1cccnc1N(CC)c1ncccc1-2 is ___
5.96

Fill in: pIC50 of CCN1c2ncccc2C(=O)Nc2c(C)ccnc21 is ___
5.82

So what does the record say about pIC50 for Cc1nnc2n1-c1cccnc1N(C1CC1)c1ncccc1-2 ?
5.11

(I) CCN1c2ncccc2-c2nccn2-c2ccc(OC)nc21
(II) CCN1c2ncccc2-c2nnnn2-c2c(C)ccnc21
(III) CCN1c2ncccc2-c2nccn2-c2cccnc21
(IV) CCN1c2ncccc2-c2ncc(C)n2-c2cccnc21
Put these in order: smallest pIC50 first, largest last. Labels, ranked as asked.
II, III, IV, I
